Exercise: for every item that follows, state its recorded IC50.
Molecular target: S-nitrosoglutathione reductase (GSNOR) (Homo sapiens)
Construct: made in house; host or cells: E. coli
Sequence (P11766 whole entry): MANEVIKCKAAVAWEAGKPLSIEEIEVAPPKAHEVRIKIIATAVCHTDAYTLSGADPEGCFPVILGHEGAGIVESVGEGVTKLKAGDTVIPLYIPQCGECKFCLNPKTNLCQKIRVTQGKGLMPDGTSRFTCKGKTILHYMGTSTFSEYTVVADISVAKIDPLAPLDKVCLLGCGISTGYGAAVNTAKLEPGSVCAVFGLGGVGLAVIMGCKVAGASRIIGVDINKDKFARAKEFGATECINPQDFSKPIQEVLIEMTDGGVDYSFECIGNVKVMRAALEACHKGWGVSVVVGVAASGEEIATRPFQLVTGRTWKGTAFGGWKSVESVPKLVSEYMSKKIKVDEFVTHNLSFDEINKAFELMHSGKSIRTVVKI
Assay: GSNOR assay (inhibition of GSNOR activity, NADH absorbance at 340 nm)
Type: biochemical
Conditions: GSNOR inhibitor activity, Tables 1-6; read-out: IC50 range

Lookup result for O=C(O)c1ccc(CC(=O)c2ccc(O)cc2)c(F)c1 ; measured IC50: < 100 nM

Value of IC50 reported for the compound O=c1[nH]c(-c2ccc(-c3c(C(F)(F)F)oc4cc(O)ccc4c3=O)c(Cl)c2)no1 is < 100 nM

Kindly note the recorded IC50 for Cc1c(-c2ccc(C(=O)O)cc2)ncc2cc(O)ccc12 , which is 100 to 1000 nM

O=[N+]([O-])c1cc(-c2ccc3cc(O)ccc3c2)ccc1O yielded IC50 of 100 to 1000 nM

Kindly note the recorded IC50 for O=C(O)c1ccc(-c2nc3ccc(O)cc3nc2C(F)(F)F)c(Cl)c1 , which is < 100 nM

IC50 for O=C(O)c1ccc(-c2c(C(F)(F)F)oc3cc(O)ccc3c2=O)cc1F is < 100 nM

Per the record, O=C(O)c1ccc(-c2nc3ccc(O)cc3cc2Cl)c(F)c1 has IC50 of < 100 nM

Input O=C(O)c1ccc(-c2cc3ccc(O)cc3cc2Cl)cc1 . Output IC50: < 100 nM

Measured IC50, O=c1[nH]c(-c2ccc(-c3c(C(F)(F)F)oc4cc(O)ccc4c3=O)cc2)ns1 : < 100 nM

Please fill in: IC50 reported for O=C(O)c1cnc(-c2ccc3cc(O)ccc3c2)cn1 = 100 to 1000 nM

Form field IC50, entry O=c1nc(-c2ccc(-c3ccc4cc(O)ccc4n3)cc2)s[nH]1 : 100 to 1000 nM

Value of IC50 reported for the compound O=C(O)c1ccc(-c2cc3ccc(O)cc3cc2F)c(Cl)c1 is < 100 nM

Per the records, this compound ( O=c1[nH]nc(-c2ccc(-c3ccc4cc(O)ccc4n3)cc2)o1 ) has IC50 equal to < 100 nM

Memo: O=C(O)c1ccc(-c2ccc3c(F)c(O)ccc3c2)c(F)c1 , reported IC50: < 100 nM

Data point: O=c1c(-c2ccc(-c3nnn[nH]3)cc2)coc2cc(O)ccc12 ; IC50 = < 100 nM
